Where these numbers come from: patent US11117866B2

System: Isolated tracheal strip (trachea smooth muscle)
Test: Isolated tracheal strip relaxation (diastolic rate) after acetylcholine chloride contraction
Settings: 1.25 mmol/L; isolated tracheal strip contracted with acetylcholine chloride; read-out: Relaxation rate %
Kindly return label 1 if reported inhibition at 1250 µM is no lower than 50%; return label 0 if it is lower.

[[record]]
compound = "CC1=CCC(C(C)(C)O)CC1 (stereo not drawn) [α-T, α,α,4-Trimethylcyclohex-3-en-1-methanol, reference compound]"
class = "label 0"

[[record]]
compound = "CC1=CCC(C(C)(C)OC(=O)CN(CCO)CCO)CC1 (stereo not shown) [M]"
class = "label 1"

[[record]]
compound = "CCCCCCCCCCCCCC(=O)OC(C)(C)C1CC=C(C)CC1 (stereo not shown) [A]"
class = "label 0"


Now consider the entry below.
Ask: Dear colleague, could you confirm whether CCCCCCCCCCCCCCCCCC(=O)OC(C)(C)C1CC=C(C)CC1 (stereo not shown) [B] has inhibition at 1250 µM at or above 50%?
Reply: label 0

====

Test system: Isolated tracheal strip (trachea smooth muscle)
Experiment: Isolated tracheal strip relaxation (diastolic rate) after acetylcholine chloride contraction
Details: 1.25 mmol/L; isolated tracheal strip contracted with acetylcholine chloride; read-out: Relaxation rate %
metric: inhibition at 1250 µM (%)
Answer format: numeric, % implied, no suffix.

Some compounds with known inhibition at 1250 µM results, for comparison:
[[record]]
compound = "CC1CCC(C(C)(C)O)CC1 (stereo not drawn)"
reading = 41.3

[[record]]
compound = "CC1=CCC(C(C)(C)OC(=O)CN(C)CCO)CC1 (stereo not drawn)"
reading = 76.8

[[record]]
compound = "CC1=CCC(C(C)(C)OC(=O)CSCCO)CC1 (stereo not drawn)"
reading = 81.1

[[record]]
compound = "CC1=CCC(C(C)(C)OC(=O)CN2CCCCC2)CC1 (stereo not drawn)"
reading = 52.2

[[record]]
compound = "CCN(CC)CC(=O)OC(C)(C)C1CC=C(C)CC1 (stereo not drawn)"
reading = 46.7

[[record]]
compound = "CC1=CCC(C(C)(C)OC(=O)CN2CCOCC2)CC1 (stereo not drawn)"
reading = 59.4

[[record]]
compound = "CC1=CCC(C(C)(C)OC(=O)CN2CCC(=O)CC2)CC1 (stereo not drawn)"
reading = 43.8

[[record]]
compound = "CC1=CCC(C(C)(C)OC(=O)CN2CCC(O)CC2)CC1 (stereo not drawn)"
reading = 71.5


// next item, inhibition at 1250 µM requested
Ask: Dear colleague, please send me the reported inhibition at 1250 µM for Cn1c(=O)c2[nH]cnc2n(C)c1=O [Aminophylline, reference compound] when you can.
Reply: 56.7
